test system: Plasmodium falciparum; assay: GSK_TCMDC: Inhibition of Plasmodium falciparum Dd2 in whole red blood cells, using parasite LDH activity as an index of growth. Test compounds present at 2uM; assay type: functional
Known Inhibition of a selection of compounds
MEASURE: Inhibition (%)

>  <MOL_SMILES>
NS(=O)(=O)c1cccc(Br)c1

>  <MEASURE>
Inhibition

>  <TEST_RESULT>
0

$$$$
>  <MOL_SMILES>
CC(C)NC[C@@H](O)[C@H](Cc1ccccc1)NC(=O)c1cc2c3c(c1)c(C(C)C)cn3CCS(=O)(=O)N2C.O=CO

>  <MEASURE>
Inhibition

>  <TEST_RESULT>
99

$$$$
>  <MOL_SMILES>
CCCCOc1c(CCNCCCCNCCc2cc(F)c3ccccc3c2OCCCC)cc(F)c2ccccc12.CS(=O)(=O)O

>  <MEASURE>
Inhibition

>  <TEST_RESULT>
78

$$$$
>  <MOL_SMILES>
Cc1n[nH]c2cc(F)c(-c3cc(OC[C@@H](N)Cc4ccccc4)cnc3-c3ccoc3)cc12.O=C(O)C(F)(F)F

>  <MEASURE>
Inhibition

>  <TEST_RESULT>
15

$$$$
>  <MOL_SMILES>
CC(C)c1sc(N2CCN(C)CC2)nc1C(=O)Nc1ccc(F)cc1C(F)(F)F.O=C(O)C(F)(F)F

>  <MEASURE>
Inhibition

>  <TEST_RESULT>
99

$$$$
